Catalogue of CEM.T2 % Binding readings, one per entry.
ASSAYED_TARGET: HLA A*0201 on CEM.T2 cell line (Homo sapiens, UniProt P04439, D140Y/D185E/D98H/E176V/E277Q/G131W/G231S/I119V/I121R/I166T/I218V/L300P/L318F/N151K/N90K/P208A/P217A/Q86G/Q94H/R138H/R169H/T345S)
Construct: This cell line expresses HLA A*0201 but is deficient for TAP transporter; endogenous in cells; host or cells: CEM.T2 (T2) cell line
PROTOCOL_TEXT: Cellular binding assay, HLA stabilization on CEM.T2 cells
Format: cell-based
ASSAY_CONDITIONS: 100 μM peptide, 37° C. for 4 h, FACS anti HLA-A2; relative to HBV positive control peptide
Residues, ends and D or L forms follow the SMILES beside them.
State just the number; it will be interpreted in %.

Use these answered entries as a reference point.
What value of measured CEM.T2 % Binding is listed for CC(C)C[C@H](NC(=O)[C@H](CCCNC(=N)N)NC(=O)[C@H](C)NC(=O)[C@H](CCC(N)=O)NC(=O)[C@@H](N)Cc1ccccc1)C(=O)N[C@@H](CCCNC(=N)N)C(=O)N[C@@H](CC(C)C)C(=O)N[C@@H](CCCNC(=N)N)C(=O)N[C@H](C(=O)O)C(C)C [Peptide 137] (H-FQARLRLRV-OH; N-terminus and C-terminus assumed) ?
30

What value of measured CEM.T2 % Binding is listed for CC[C@H](C)[C@H](N)C(=O)N[C@@H](CC(C)C)C(=O)N[C@@H](Cc1c[nH]cn1)C(=O)N[C@H](C(=O)N[C@@H](CO)C(=O)N[C@@H](Cc1ccccc1)C(=O)N[C@@H](CC(C)C)C(=O)N[C@@H](C)C(=O)N[C@@H](CCC(=O)O)C(=O)O)C(C)C [Peptide 239] (H-ILHVSFLAE-OH; N-terminus and C-terminus assumed) ?
10

What value of measured CEM.T2 % Binding is listed for CC(C)C[C@H](NC(=O)[C@H](Cc1c[nH]cn1)NC(=O)[C@H](Cc1ccccc1)NC(=O)[C@H](CCC(=O)O)NC(=O)[C@H](CO)NC(=O)[C@@H](NC(=O)[C@@H](NC(=O)[C@H](C)N)C(C)C)[C@@H](C)O)C(=O)N[C@H](C(=O)O)C(C)C [Peptide 203] (H-AVTSEFHLV-OH; N-terminus and C-terminus assumed) ?
48

Consider the record given below.
What value of measured CEM.T2 % Binding is listed for CC(C)[C@H](NC(=O)CNC(=O)[C@@H](NC(=O)[C@@H](NC(=O)[C@@H](NC(=O)[C@@H](NC(=O)[C@H](CO)NC(=O)[C@H](C)NC(=O)[C@@H](N)CO)C(C)C)C(C)C)C(C)C)C(C)C)C(=O)O [Peptide 347] (H-SASVVVVGV-OH; N-terminus and C-terminus assumed) ?
40

---

ASSAYED_TARGET: HLA A*0201 on CEM.T2 cell line (Homo sapiens, UniProt P04439, D140Y/D185E/D98H/E176V/E277Q/G131W/G231S/I119V/I121R/I166T/I218V/L300P/L318F/N151K/N90K/P208A/P217A/Q86G/Q94H/R138H/R169H/T345S)
Construct: This cell line expresses HLA A*0201 but is deficient for TAP transporter; endogenous in cells; host or cells: CEM.T2 (T2) cell line
PROTOCOL_TEXT: Cellular binding assay, HLA stabilization on CEM.T2 cells
Assay type: cell-based
ASSAY_CONDITIONS: 100 μM peptide, 37° C. for 4 h, FACS anti HLA-A2; relative to HBV positive control peptide
Residues, ends and D or L forms follow the SMILES beside them.
READOUT_NAME: CEM.T2 % Binding

What value of measured CEM.T2 % Binding is listed for CC(C)C[C@H](NC(=O)[C@H](CC(C)C)NC(=O)[C@H](CC(C)C)NC(=O)[C@@H](N)CC(C)C)C(=O)N[C@@H](C)C(=O)N[C@@H](CO)C(=O)N[C@@H](Cc1ccccc1)C(=O)N[C@H](C(=O)NCC(=O)O)[C@@H](C)O [Peptide 19] (H-LLLLASFTG-OH; N-terminus and C-terminus assumed) ?
17%

Consider the record given below.
What value of measured CEM.T2 % Binding is listed for CC(C)C[C@H](NC(=O)[C@@H](N)Cc1ccccc1)C(=O)N[C@@H](C)C(=O)N[C@@H](CCC(=O)O)C(=O)N[C@@H](C)C(=O)N[C@@H](CO)C(=O)N[C@H](C(=O)N[C@@H](CCCNC(=N)N)C(=O)NCC(=O)O)C(C)C [Peptide 244] (H-FLAEASVRG-OH; N-terminus and C-terminus assumed) ?
12%

Data origin, for the record: patent US9266922B2
